For each record, write down the corresponding logP.
Assay: log P by HPLC
Format: physicochemical
Conditions: HPLC, gradient method, acetonitrile/0.1% aqueous phosphoric acid; EEC directive 79/831 Annex V. A8
Answers are plain numbers.

Reference set (4 entries):
{"MOLECULE": "CCCCNc1c(-c2ccc(F)cc2F)c(Cl)nc2nc(C)nn12", "logP": 3.04}
{"MOLECULE": "C=CCN(C)c1c(-c2ccc(F)cc2F)c(Cl)nc2nc(C)nn12", "logP": 3.06}
{"MOLECULE": "CCCCN(C)c1c(-c2ccc(F)cc2F)c(Cl)nc2nc(C3CC3)nn12", "logP": 4.21}
{"MOLECULE": "COC(=O)CNc1c(-c2c(F)cc(F)cc2F)c(Cl)nc2nc(C)nn12", "logP": 2.13}

Your task in this section: give logP for each listed record.
1. CCC(C)Nc1c(-c2ccc(F)cc2F)c(Cl)nc2nc(C)nn12 (stereo not shown)
2. Cc1nc2nc(Cl)c(-c3ccc(F)cc3Cl)c(N[C@@H](C)C(F)(F)F)n2n1 (single isomer, unassigned) [compound 642]

a:
[3.01, 3.17]

Dear colleague, could you please provide logP for the molecules listed below?
1. C=CCN(C)c1c(-c2ccccc2Cl)c(Cl)nc2nc(C)nn12
2. C=C(C)CN(CC)c1c(-c2c(F)cc(F)cc2F)c(Cl)nc2nc(CC)nn12
3. Cc1nc2nc(Cl)c(-c3ccc(F)cc3F)c(N(C)CC3OCCO3)n2n1
4. CCN(CCC#N)c1c(-c2ccc(F)cc2F)c(Cl)nc2nc(C(F)(F)F)nn12

a:
3.19
4.34
2.56
3.46
